Assay Details: yeast display, Sf9 membrane polyspecificity reagent, FACS + sequencing; frameworks hold sequencing errors

Sequence: QVQLVESGGGLVQAGGSLRLSCAASGITFYRYAMGWYRQAPGKEREFVAAINYGGSSTRYADSVKGRFTISRDNAKNTVYLQMNCLKPEDTAVYYCAVEKRYPRRRYDYWGQGTQVTVSS
polyreactivity (PSR sort gate): low polyreactivity
//
Sequence: QVQLVESGGGLVQAGGSLRLSCAASGLIFYDNMGWYRQAPGKERELVAAISSSGGSTSYADSVKGRFTISRDNAKNTVYLQMNSLKPEDTAVYYCAADVELWVFRGQQYDYWGQGTQVTVSS
polyreactivity (PSR sort gate): low polyreactivity
//
Sequence: QVQLVESGGGLVQAGGSLRLSCAASGRIFYNYAMGWYRQAPGKERELVAAITRRAGRTYYADSVKGRFTISRDNAKNTVYLQMNSLKPEDTAVFYCAKDEPGSSRVLYDYWGQVTQVTVSS
polyreactivity (PSR sort gate): low polyreactivity
//
Sequence: QVQLVESGGGLVQAGGSLRLSCAASGRTFASNAMGCYRQAPGKERELVAAITISGGRTYYADSVKGRFTISRDNAKNTVYLQMNSLKPEDTAVYYRAAAKHSWRPSYYWGGYWGQGTQVTVSS
polyreactivity (PSR sort gate): low polyreactivity
//
Sequence: QVQLVESGGGLVQAGGSLRLSCAASGSIFGYYTMGWYRQAPGKERELVARITRGGSTYYADSVKGRFTISRDNAKNTVYLQMNSLKPEDTAVYYCAARRVNAGWTYGLRGNYWGQGTQVTVSS
polyreactivity (PSR sort gate): low polyreactivity
//
Sequence: QVQLVESGGGLGQAGGSLRLSCAASGFTFRYYAMGWSRQAPGKERELVAAITGSGGRTYYADSVKGRFTISRDNAKNTVYLQKNSLKPEDSAVYYCARDVDPRGRYYWGQGTQVTVSS
polyreactivity (PSR sort gate): high polyreactivity
//
Sequence: QVQLVESGGGLVQAGGSLRLTCAASGRIFFYYSMGWYRQAPGKERELVAAIRSGGSTNYADSVKGRFTISRDNAKNTVYLQMYILKPEDTAGYYSAAHPTRYYTPRYYYWGLGTQVTVSS
polyreactivity (PSR sort gate): high polyreactivity
//
Sequence: QVQLVESGGGLVQAGGSLRLSCAASGFIFGYNAMGWDRQAPGKERELVAAITRSGGRTYYADSVKGRFTISRDNAKNTVSLQMNSLKPEDTAVYYCAASRFATYPRWYDYWGQGTQVTVSS
polyreactivity (PSR sort gate): low polyreactivity
//
Sequence: QVQLVESGGGLVQAGGSLRLSCAASGRTFRRYTMGWYRPAPGKERELVAAITTSGGSTYYADSVKGRFTLSRDNAKNTVYLQMNSLKPEDTAVYYCAATRRYSGDYWGQGTQVTVSS
polyreactivity (PSR sort gate): high polyreactivity
//
Sequence: QVQLVESGGGLVQAGGSLRLSCAASGSIFRLYAMGWYRQAPGKERELVAAITWRSGSTYYADSVKGRFTISRDNAKNTVYLQMNSLKPEDTAVYYCAADSLYRLYNYWGQGTQVTVSS
polyreactivity (PSR sort gate): high polyreactivity
//
Sequence: QVQLVESGGGLVQAGGSLRLSCAASGSIFRGYAMGWYRQAPGKERELVATIDSSAGSTYYADSVKGRFTISRDNAKNTVYLQMNSLIPEDTAVYYCATDPYGYYYSGFDNWGQGTQVTVSS
polyreactivity (PSR sort gate): low polyreactivity
//
Sequence: QVQLQESGGGLVQAGGSLRLSCAASGSISRYYDMGLYRQAPGKEREFVAGISGGAITYYADSVKGRFTISRDNAKNTVYLQMNSLKPVDTAVYYCAADTGVYQYHSYWGQGTQVTVSS
polyreactivity (PSR sort gate): low polyreactivity
//
Sequence: QVQLVESGGGLVQAGGSLRLSCAASGRIDAYYAMGWYRQAPGKERELVAGISQRGSRTYYADSVKGRFTISRDNAKNTVYLQMNSLKPEDTAVYYCAARDRRSVTMDYWGQGTQVTVSS
polyreactivity (PSR sort gate): high polyreactivity
//
Sequence: QVQLVESGGRLVQAGGSLRLSCAASGRTFRSHTKGWYRKAPGKERELVAAIIIGGSTYYADTVKGRFTISRDNAKNTVYLQMNSLKPEDSAVYYCARFYRYSRDYWGQGTQVTVSS
polyreactivity (PSR sort gate): high polyreactivity
//
Sequence: QVQLQVSGGDLVQAGGSLRLSCAASGTINGLTSMGWYRQAPGKEREFVAAITDGGYTNYADSVKGRFTISRDNAKNTVYLQMISLKPEDTAVYYCAVLFSDDAYYAYWGQGTQVTVSS
polyreactivity (PSR sort gate): low polyreactivity
//
Sequence: QVQLEESGGGLVQAGGSLRLTCAASGSIFDYNAMGWYRQAHGKERELVAAITSGGITYADSVKGRFTISRDNAKNTVYLQMNSLKPEDTAVYYCAALDKLSKYRRYRYGYWGQGTQVTVSS
polyreactivity (PSR sort gate): high polyreactivity
//
Sequence: QVQLVESGGGLVQAGGSLRLSCAASGSIFKQYAMGWYRQAPGKERELVARITGSGGSTYYADSVKGRFTISRDNAKNTVYLQMNSLKPEDTAVYYCATKRYARSSGGYDYWGQGTQVTVSS
polyreactivity (PSR sort gate): low polyreactivity
//
Sequence: QVQREESGGGLVQAGGSLRLSCAASGSTFDAYAMGWYRQAPGKERELVAAITWSGGSTYYADSVKGRFTISRDNAKNTVYLQMNSLKPEATAVYYCAADKLGELDYWGQGTQVTVSS
polyreactivity (PSR sort gate): low polyreactivity
//
Sequence: QVQLVESGGGLVQAGGSLRLSCAASGSTSWRNTMGWYRQAPGKERELVAAIRNVGSTYYADSVKGLFTISRDNAKNTVYLQMNSLKPEDTAVYYCNARWRFLYDYWGQGTQVTVSS
polyreactivity (PSR sort gate): high polyreactivity
//
Sequence: QLQHVESGGGLVQAGGSLRLSCAASGGIFGIYAMGWYRQAPGKESELVAAISRRGGSTYFADSVKGRFTISRDNAKNTVYLQMKSLKPADTAVYYCAAVRRGVNTSFGYRPLNYWGQGTEVTVSS
polyreactivity (PSR sort gate): high polyreactivity
//
Sequence: QVQLVESGGGLVQAGGSLRLSCAASGSTFQSYAMGWYRQAPGKERELVARIRNSGGSTYYADSVKGRFTISRDNAKNTVYLQMNSLKPEDTAVYYCNARYVSRYLTYQYDYWGQGTQVTVSS
polyreactivity (PSR sort gate): high polyreactivity
